- test: qHTS assay to identify small molecule antagonists of the constitutive androstane receptor (CAR) signaling pathway - cell viability counter screen (AID 1224837); also: % is scaled to controls: 0 for no effect and ±100 for the full control effect; nearly all actives have a fitted effect of over 45% in size
- testContext: HepG2-CYP2B6-hCAR viability, CellTiter-Fluor, 23 h, co-treated with 50 nM CITCO; series mostly up to 92.4 µM
Inconclusive results are not listed. Activity calls are given as the source filed them. Calls follow the shape of the dose curve; as a rule, active = well fitted cell-killing curve with a large enough effect in the repeat runs; inconclusive = weak or mixed curves, or effect the other way; inactive = flat fitted curve, though single readings scatter.

{"columns": ["molecule", "activity change, negative = cytotoxicity"],
 "data": [
  ["O=C1Nc2ccccc2C1=O", "inactive"],
  ["COc1cc(NS(=O)(=O)c2ccc(N)cc2)ncn1", "inactive"],
  ["Cc1ccc(Br)cc1", "inactive"],
  ["CCCCCCCCCCCCCCCC(=O)OC", "-4.04% [at 19 µM] (inactive)"],
  ["N=C(N)N1CCc2ccccc2C1", "1.11% [at 8.39 µM] (inactive)"],
  ["CC(CC(=O)Cl)CC(C)(C)C (stereo not drawn)", "inactive"],
  ["NS(=O)(=O)c1cc2c(cc1C(F)(F)F)NCNS2(=O)=O", "inactive"],
  ["CCOC(=O)CC", "inactive"],
  ["O=C(CCBr)N1CCN(C(=O)CCBr)CC1", "inactive"],
  ["c1cc2ccc3ccc4ccc5cccc6c(c1)c2c3c4c56", "2.07% [at 3.26 µM] (inactive)"],
  ["CC1(C)S[C@@H]2[C@H](NC(=O)Cc3ccccc3)C(=O)N2[C@H]1C(=O)O (tested in a mixture with another compound)", "inactive"],
  ["N=C(N)N", "inactive"],
  ["CC(=O)Oc1ccc(C(C)=O)cc1", "inactive"],
  ["CC12CCCC=C1C(=O)OC2=O (stereo not drawn)", "inactive"],
  ["Cc1cc(N)no1", "inactive"],
  ["Cc1ccc(N)nc1", "inactive"],
  ["CCCC(C)C(O)CC (stereo not drawn)", "inactive"],
  ["N#Cc1cc(NC(=O)C(=O)O)c(Cl)c(NC(=O)C(=O)O)c1", "inactive"],
  ["N#CC1(N)CCCCC1", "inactive"],
  ["CCCCCCCCC1CO1 (stereo not drawn)", "inactive"],
  ["C[C@@H]1NC(=O)[C@@H](N)CNC(=O)[C@H](C2CCNC(N)=N2)NC(=O)/C(=C/NC(N)=O)NC(=O)[C@H](CNC(=O)C[C@@H](N)CCCN)NC1=O (stereo partly drawn)", "0.72% [at 0.349 µM] (inactive)"],
  ["COC(C)(C)CC(C)=O", "inactive"],
  ["N#Cc1ccccc1C#N", "inactive"],
  ["CC(C)OCCO", "inactive"],
  ["CC(=O)OCC(=O)[C@@]1(O)CC[C@H]2[C@@H]3CCC4=CC(=O)C=C[C@]4(C)[C@H]3[C@@H](O)C[C@@]21C", "inactive"],
  ["CC(=O)Nc1ccc(S(=O)(=O)Nc2cc(C)on2)cc1", "inactive"],
  ["Cc1nc2ccc(Cl)cc2[nH]1", "inactive"],
  ["Cc1ccc(O)c([N+](=O)[O-])c1", "inactive"]
]}

Source listed as PubChem BioAssay (Tox21).
